In this section we review reported viability, T/C values for a set of compounds.
Test system: 454973-116-R2-J3-PDC complex spheroid viability
Assay: Anticancer human tumor 454973-116-R2-J3-PDC patient-derived pancreatic carcinoma cell line growth inhibition [POLQ]
Details: second compound 3.16 µM; first compound 0.0316 µM; stronger effect = lower value
Provide the reading as a plain figure in %.

Below, 2 compounds whose answers are already recorded.
compound	result-type	measured-number
COc1cccc(OCCCN)c1-c1cc(Nc2cnc(C#N)cn2)n[nH]1 + Cc1cccc(N(C)C(=O)C2C(O)CCN2c2nc(C)cc(C(F)(F)F)c2C#N)c1	viability, T/C	9.04
CCc1c2c(nc3ccc(O)cc13)-c1cc3c(c(=O)n1C2)COC(=O)[C@]3(O)CC + Cc1cccc(N(C)C(=O)C2C(O)CCN2c2nc(C)cc(C(F)(F)F)c2C#N)c1	viability, T/C	13.1

*Q* Let me know recorded viability, T/C for CCc1c2c(nc3ccc(O)cc13)-c1cc3c(c(=O)n1C2)COC(=O)[C@]3(O)CC + COC1C(OC(N)=O)C(O)C(Oc2ccc3c(O)c(NC(=O)c4ccc(O)c(CC=C(C)C)c4)c(=O)oc3c2C)OC1(C)C , thanks.
*A* 9.37

====

Reported viability, T/C values for the following compounds.
Tested on: 454973-116-R2-J3-PDC complex spheroid viability
Test: Anticancer human tumor 454973-116-R2-J3-PDC cell line growth inhibition [POLQ];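 also: spheroids exposed to drugs for seven days before measurement; percent viability relative to DMSO vehicle control wells taken as 100%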
Conditions: second compound 0.1 µM; first compound 0.0316 µM; stronger effect = lower value

Known results for compounds:
compound	result
CCc1c2c(nc3ccc(O)cc13)-c1cc3c(c(=O)n1C2)COC(=O)[C@]3(O)CC + Cc1cccc(N(C)C(=O)C2C(O)CCN2c2nc(C)cc(C(F)(F)F)c2C#N)c1	13.6%
C#Cc1c(F)ccc2cc(O)cc(-c3ncc4c(N5CC6CCC(C5)N6)nc(OCC56CCCN5CC(F)C6)nc4c3F)c12 (centres undefined) + COC1C(OC(N)=O)C(O)C(Oc2ccc3c(O)c(NC(=O)c4ccc(O)c(CC=C(C)C)c4)c(=O)oc3c2C)OC1(C)C	68.2%
COc1cc2cc(C(=O)CCC(=O)O)sc2cc1OC + Nc1ccc(C#CCN(C(=O)Cc2ncc(C(F)(F)F)cc2C(F)(F)F)c2ccc(F)cc2)nn1	98.2%

Could you now consider this next compound?
*Q* In one line, give reported viability, T/C of the entry Cn1ncnc1[C@H]1c2n[nH]c(=O)c3cc(F)cc(c23)N[C@@H]1c1ccc(F)cc1 + COC1C(OC(N)=O)C(O)C(Oc2ccc3c(O)c(NC(=O)c4ccc(O)c(CC=C(C)C)c4)c(=O)oc3c2C)OC1(C)C .
*A* 98.5%

====

Test system: 454973-116-R2-J3-PDC complex spheroid viability
Assay: Anticancer human tumor 454973-116-R2-J3-PDC cell line growth inhibition [POLQ];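 also: spheroids exposed to drugs for seven days before measurement; percent viability relative to DMSO vehicle control wells taken as 100%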
Settings: second compound 3.16 µM; first compound 0.316 µM; stronger effect = lower value
result-type: viability, T/C

Example compounds with recorded viability, T/C:
compound	viability, T/C
C=CC(=O)N1CCN(c2nc(=O)n(-c3c(C)ccnc3C(C)C)c3nc(-c4c(O)cccc4F)c(F)cc23)C(C)C1 (configuration not stated) + COC1C(OC(N)=O)C(O)C(Oc2ccc3c(O)c(NC(=O)c4ccc(O)c(CC=C(C)C)c4)c(=O)oc3c2C)OC1(C)C	105%
O=C(c1cc(Cc2n[nH]c(=O)c3ccccc23)ccc1F)N1CCN(C(=O)C2CC2)CC1 + COC1C(OC(N)=O)C(O)C(Oc2ccc3c(O)c(NC(=O)c4ccc(O)c(CC=C(C)C)c4)c(=O)oc3c2C)OC1(C)C	109%
COc1cc2cc(C(=O)CCC(=O)O)sc2cc1OC + Nc1ccc(C#CCN(C(=O)Cc2ncc(C(F)(F)F)cc2C(F)(F)F)c2ccc(F)cc2)nn1	113%

*Q* Consider the compound CC1COCCN1c1cc(-c2ccnn2C)c2ccnc(-c3ccn[nH]3)c2n1 (configuration not stated) + Cc1cccc(N(C)C(=O)C2C(O)CCN2c2nc(C)cc(C(F)(F)F)c2C#N)c1 and give its recorded viability, T/C.
*A* 34.1%

*Q* Determine from records and report viability, T/C for COc1cccc2c1C(=O)c1c(O)c3c(c(O)c1C2=O)CC(O)(C(=O)CO)CC3OC1CC(N)C(O)C(C)O1 (configuration not stated) + Cc1cccc(N(C)C(=O)C2C(O)CCN2c2nc(C)cc(C(F)(F)F)c2C#N)c1
*A* 25.6%

*Q* Please list viability, T/C recorded for the compound CCc1cc2c(N3CCc4c(cc(Cn5ccnc5)cc4-c4cn(C)nc4C(F)(F)F)C3=O)ccnc2c(OC)n1 + Nc1ccc(C#CCN(C(=O)Cc2ncc(C(F)(F)F)cc2C(F)(F)F)c2ccc(F)cc2)nn1
*A* 93.6%

*Q* Let me know recorded viability, T/C for COc1cc2cc(C(=O)CCC(=O)O)sc2cc1OC + Cc1cccc(N(C)C(=O)C2C(O)CCN2c2nc(C)cc(C(F)(F)F)c2C#N)c1 , thanks.
*A* 96.5%

*Q* Please give the documented viability, T/C of C=CC(=O)N1CCN(c2nc(=O)n(-c3c(C)ccnc3C(C)C)c3nc(-c4c(O)cccc4F)c(F)cc23)C(C)C1 (configuration not stated) + Cc1cccc(N(C)C(=O)C2C(O)CCN2c2nc(C)cc(C(F)(F)F)c2C#N)c1
*A* 103%
